Measured target: human TLR9 (Homo sapiens)
Construct: host or cells: HEK-Blue cells (HEK293-derived reporter line)
Sequence (Q9NR96 26-1032): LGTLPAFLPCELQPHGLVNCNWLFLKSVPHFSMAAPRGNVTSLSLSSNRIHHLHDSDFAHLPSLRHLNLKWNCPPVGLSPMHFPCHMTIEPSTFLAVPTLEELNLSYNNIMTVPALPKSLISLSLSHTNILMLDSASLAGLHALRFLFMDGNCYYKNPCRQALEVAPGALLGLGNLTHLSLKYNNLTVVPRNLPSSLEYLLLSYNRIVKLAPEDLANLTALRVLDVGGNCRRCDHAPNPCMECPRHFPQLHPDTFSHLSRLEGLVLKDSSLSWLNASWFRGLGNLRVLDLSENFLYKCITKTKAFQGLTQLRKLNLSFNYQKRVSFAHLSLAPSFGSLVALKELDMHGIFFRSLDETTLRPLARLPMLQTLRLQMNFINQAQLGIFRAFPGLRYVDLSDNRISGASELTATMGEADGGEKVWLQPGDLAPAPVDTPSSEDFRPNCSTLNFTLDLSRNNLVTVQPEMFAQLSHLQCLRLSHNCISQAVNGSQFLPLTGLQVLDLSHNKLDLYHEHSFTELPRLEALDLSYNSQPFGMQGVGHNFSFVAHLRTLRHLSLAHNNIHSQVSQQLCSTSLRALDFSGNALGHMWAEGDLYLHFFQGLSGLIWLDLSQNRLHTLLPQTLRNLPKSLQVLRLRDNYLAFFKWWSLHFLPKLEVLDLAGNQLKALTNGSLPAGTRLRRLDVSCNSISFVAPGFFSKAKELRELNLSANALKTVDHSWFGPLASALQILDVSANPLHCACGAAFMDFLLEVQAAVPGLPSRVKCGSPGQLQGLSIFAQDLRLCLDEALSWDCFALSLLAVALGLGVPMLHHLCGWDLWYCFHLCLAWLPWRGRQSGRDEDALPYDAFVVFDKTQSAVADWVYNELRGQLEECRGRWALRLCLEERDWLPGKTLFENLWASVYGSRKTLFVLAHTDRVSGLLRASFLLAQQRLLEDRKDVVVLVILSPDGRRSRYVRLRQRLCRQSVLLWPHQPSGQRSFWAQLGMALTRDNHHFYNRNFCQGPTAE
Experimental details: TLR9 inhibition reporter assay (HEK-Blue cells, secreted embryonic alkaline phosphatase reporter)
Format: cell-based
Experimental setup: HEK-Blue cells overexpressing human TLR9, stimulated with ODN2006 5 nM; read-out: TLR 9 IC50
Cut-off 0.09 µM on IC50: below means fulfilled, at or above means not fulfilled.

                                   compound    label_value
0  CS(=O)(=O)c1ccc(-c2nc3c(F)cc(C4CCN(C5CCN(CC6CC6)CC5)CC4)cc3n2C2CC2)cc1      fulfilled
1  CC(C)CN1C2CCC1CC(N1CCC(c3cc4c(cc3F)nc(-c3ccc(S(C)(=O)=O)cc3)n4C)CC1)C2 (single isomer, unassigned) [Example 228]      fulfilled
2  Cn1c(-c2ccc(S(C)(=O)=O)cc2)nc2c(F)cc(C3CCN(C4CC5CCC(C4)N5C4CCC4)CC3)cc21 (single isomer, unassigned) [Example 292]  not fulfilled
3  CC(C)CN1C2CCC1CC(N1CCC(c3ccc4c(nc(-c5ccc(S(C)(=O)=O)cc5)n4C)c3F)CC1)C2 (single isomer, unassigned) [Example 189]  not fulfilled
4  COc1ccc(-c2nc3c(C)cc(C4CCN(C5CC6CCC(C5)N6C5CCC5)CC4)cc3n2C)cc1OC (stereo not shown) [Example 146]      fulfilled

Here is another compound to look at.
(Q) Please let me know if COCCN1C2CCC1CC(N1CCC(c3cc(C)c4nc(-c5ccc(S(C)(=O)=O)cc5)n(C)c4c3)CC1)C2 (single isomer, unassigned) [Example 162] shows IC50 below 0.09 µM.
(A) fulfilled
